# system-tested: panel of more than 300 wild-type and mutant kinases (313 kinase panel) (Homo sapiens, UniProt P19525)
# measurement-protocol: Kinase profiling in a biochemical assay panel (mobility shift assays and ELISA), %-inhibition at 1 μM; selectivity entropy
# measurement-parameters: kinase PKR; 1 μM
recorded-endpoint: %-inhibition of PKR
Respond with the figure and its unit, in that order.

Consider the worked cases shown below.
| smiles | %-inhibition of PKR |
| --- | --- |
| O=S(=O)(c1cccc2cnccc12)N1CCCNCC1 | -4.39% |
| CO[C@H]1C[C@@H]2CC[C@@H](C)[C@@](O)(O2)C(=O)C(=O)N2CCCC[C@H]2C(=O)O[C@H]([C@H](C)C[C@@H]2CC[C@@H](OC(=O)C(C)(CO)CO)[C@H](OC)C2)CC(=O)[C@H](C)/C=C(\C)[C@@H](O)[C@@H](OC)C(=O)[C@H](C)C[C@H](C)/C=C/C=C/C=C/1C | -14% |

Turning now to a further molecule:
Ask: GET /values?readout=%-inhibition of PKR&item= CC(=O)Nc1cccc(-n2c(=O)n(C3CC3)c(=O)c3c(Nc4ccc(I)cc4F)n(C)c(=O)c(C)c32)c1
Reply: 1.13%
